Parameter Control: see the listing below.
- system-tested: Ornithine decarboxylase (Mus musculus) (UniProt P00860)
- Sequence (whole entry): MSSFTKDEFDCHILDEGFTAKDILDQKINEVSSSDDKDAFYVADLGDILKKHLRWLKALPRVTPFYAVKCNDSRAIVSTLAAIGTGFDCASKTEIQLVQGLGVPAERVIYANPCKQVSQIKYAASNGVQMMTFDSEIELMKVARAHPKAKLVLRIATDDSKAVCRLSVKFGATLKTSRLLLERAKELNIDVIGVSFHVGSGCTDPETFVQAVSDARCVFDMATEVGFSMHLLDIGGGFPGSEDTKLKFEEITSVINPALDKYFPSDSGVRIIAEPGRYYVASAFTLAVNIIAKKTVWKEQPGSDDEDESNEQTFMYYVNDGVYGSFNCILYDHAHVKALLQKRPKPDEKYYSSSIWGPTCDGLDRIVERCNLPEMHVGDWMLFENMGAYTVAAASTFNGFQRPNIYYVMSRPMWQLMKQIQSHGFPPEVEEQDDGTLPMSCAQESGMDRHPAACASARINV
- experiment: Percent of ornithine decarboxylase enzyme activity in L1210 cells after 4 hr of treatment with 1 uM of dose
- Assay type: cell-based
Number in %, nothing else.

[[record]]
compound = "CCNCCCNCCCNCCCNCC1CC1"
output_unit = "%"
number = 26

[[record]]
compound = "CCNC[C@H](O)CNCCCNC[C@@H](O)CNCC"
output_unit = "%"
number = 61

[[record]]
compound = "CCNC[C@@H](O)CNCCCNC[C@H](O)CNCC"
output_unit = "%"
number = 35


Note: attention shifts to another entry.
q: Any idea what Control was measured for CCNCCCNCCCNCCCNCC [BIS(ETHYL)NORSPERMINE] ?
a: 7

* * *

Measured pIC50, listed per entry.
- Tested on: L1210
- experiment: Inhibitory concentration of compound against the growth of the L1210 cell line at 48 hr
- Type: functional, cell-based
- condition-set: Mus musculus, L1210, 48 h
Please keep in mind that pIC50 is minus log10 of the molar concentration; only the number is needed.

[[record]]
given_smiles = "CCNC[C@H](O)CNCCCNC[C@@H](O)CNCC1CC1"
number = 5.35


q: Need pIC50 of CCNCCCNCCCNCCCNCC1CC1 , thanks.
a: 4.80
